The origin of these recorded values is PubChem BioAssay AID1963871.

- Tested on: KRAS-mutant PDC multicell tumor spheroid viability;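 also: viability read after seven days of drug exposure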
- Method notes: Anticancer human tumor 521955-158-R2-J5-PDC patient-derived pancreatic carcinoma cell line growth inhibition [KRAS2]
- Condition summary: second compound 1 µM; first compound 0.0316 µM; hits give low values
Measured quantity: viability, T/C

- O=C(c1cc(Cc2n[nH]c(=O)c3ccccc23)ccc1F)N1CCN(C(=O)C2CC2)CC1 + C=CC(=O)N1CCN(c2nc(OCC3CCCN3C)nc3c2CCN(c2cccc4cccc(C)c24)C3)CC1CC#N: 100%
- CN(C)C/C=C/C(=O)Nc1cc2c(Nc3ccc(F)c(Cl)c3)ncnc2cc1O[C@H]1CCOC1 + COc1cc2nc(C)nc(NC(C)c3cc(N)cc(C(F)(F)F)c3)c2cc1OC1CCOC1: 84.3%
- CC1OCC2(CCN(c3cnc(Sc4ccnc(N)c4Cl)c(N)n3)CC2)C1N (stereo unspecified) + CNCc1ccccc1-c1csc(C(C)Nc2nc(C)nc3cc(OC)c(OC)cc23)c1: 90.6%
- CCN1CCN(Cc2ccc(Nc3ncc(F)c(-c4cc(F)c5nc(C)n(C(C)C)c5c4)n3)nc2)CC1 + C=CC(=O)N1CCN(c2nc(=O)n(-c3c(C)ccnc3C(C)C)c3nc(-c4c(O)cccc4F)c(F)cc23)C(C)C1: 94.5%
- CC1COCCN1c1cc(-c2ccnn2C)c2ccnc(-c3ccn[nH]3)c2n1 (stereo unspecified) + CNCc1ccccc1-c1csc(C(C)Nc2nc(C)nc3cc(OC)c(OC)cc23)c1: 25.3%
- CC1COCCN1c1cc(-c2ccnn2C)c2ccnc(-c3ccn[nH]3)c2n1 (stereo unspecified) + CC1OCC2(CCN(c3cnc(Sc4ccnc(N)c4Cl)c(N)n3)CC2)C1N: 29%
- Cn1nccc1Nc1nccc(-c2cc3c(s2)C(C)(C)N(CCN2CCOCC2)C3=O)n1 + COc1cc2nc(C)nc(NC(C)c3cc(N)cc(C(F)(F)F)c3)c2cc1OC1CCOC1: 83.2%
- CC1COCCN1c1cc(-c2ccnn2C)c2ccnc(-c3ccn[nH]3)c2n1 (stereo unspecified) + COc1cc2nc(C)nc(NC(C)c3cc(N)cc(C(F)(F)F)c3)c2cc1OC1CCOC1: 27.7%
- COc1cc(Nc2ncc3c(n2)-c2ccc(Cl)cc2C(c2c(F)cccc2OC)=NC3)ccc1C(=O)O + C=CC(=O)N1CCN(c2nc(OCC3CCCN3C)nc3c2CCN(c2cccc4cccc(C)c24)C3)CC1CC#N: 28.8%
- COc1cc(Nc2ncc3c(n2)-c2ccc(Cl)cc2C(c2c(F)cccc2OC)=NC3)ccc1C(=O)O + COc1cc2nc(C)nc(NC(C)c3cc(N)cc(C(F)(F)F)c3)c2cc1OC1CCOC1: 46.9%
- CC1(C)CCC(CN2CCN(c3ccc(C(=O)NS(=O)(=O)c4ccc(NCC5CCOCC5)c([N+](=O)[O-])c4)c(Oc4cnc5[nH]ccc5c4)c3)CC2)=C(c2ccc(Cl)cc2)C1 + C=CC(=O)N1CCN(c2nc(OCC3CCCN3C)nc3c2CCN(c2cccc4cccc(C)c24)C3)CC1CC#N: 85.6%
